These measurements were taken from patent US20170334899A1.

# system-under-test: CDK2/CycE (Homo sapiens, UniProt P24941)
# Construct: GST
# assay-procedure: CDK2/CycE kinase assay (TR-FRET)
# applied-conditions: avg, read-out: CDK2 avg (IC50 [mol/l])
pIC50: −log10 of the molar value.
Let's look at some compounds and their measured pIC50.

Known results for compounds:
>>> result("Cc1nsc(Nc2cnc(C(F)(F)F)cn2)c1C(=O)Nc1ccc(OCC2CCN(C(=O)OC(C)(C)C)C2)nc1 (stereo not shown) [Example 109]")
"≤ 4.70"
>>> result("Cc1nsc(Nc2cnc3ccccc3n2)c1C(=O)Nc1cccc(NC(=O)C(C)(C)C)c1 [Example 186]")
"< 4.70"
>>> result("Cc1nsc(Nc2cnc3ccccc3n2)c1C(=O)Nc1cccc(C(=O)N2CCNCC2)c1 [Example 101]")
"≤ 4.70"

Now consider the entry below.
INPUT: Give the measured pIC50 of Cc1nsc(Nc2cnc(C(F)(F)F)cn2)c1C(=O)Nc1ccc(O[C@H]2CCN(CCC(F)(F)F)C[C@H]2F)nc1 [Example 146] .
OUTPUT: < 4.70

---

# Test system: HeLa
# assay-procedure: Proliferation assay (crystal violet), HeLa
# Assay type: cell-based
# applied-conditions: Homo sapiens, HeLa, 96 h, HeLa cells; 4 days incubation; crystal violet staining; read-out: IC50 inhibition of proliferation, HeLa
reported-endpoint: log10(IC50) (log10 of the value in nM)
Hi team, quick reminder: these entries are log10 of IC50 (nM).

>>> number("Cc1nsc(Nc2cnc(C(F)(F)F)cn2)c1C(=O)Nc1ccc(F)c(O[C@@H]2CCN(CC(F)(F)F)C2)c1")
2.43
>>> number("Cc1nsc(Nc2cnc3ccccc3n2)c1C(=O)Nc1cccc(NS(=O)(=O)C2CN(CCF)C2)c1")
4.00
>>> number("Cc1nsc(Nc2cnc(C(F)(F)F)cn2)c1C(=O)Nc1ccc(F)c(OCCCNC(=O)C(F)(F)F)c1")
2.93
>>> number("Cc1nsc(Nc2cnc(C(F)(F)F)cn2)c1C(=O)Nc1ccc(O[C@@H]2CCN(CCC(F)(F)F)C[C@@H]2F)nc1")
2.41
>>> number("COC(=O)CCc1cccc(NC(=O)c2c(C)nsc2Nc2ccc(C#N)cn2)c1")
3.70
>>> number("Cc1nsc(Nc2cnc(C(F)(F)F)cn2)c1C(=O)Nc1ccc(C(=O)N2CCN(CC(F)F)CC2)cc1")
3.40

INPUT: Give the measured log10(IC50) of Cc1nsc(Nc2cnc3ccccc3n2)c1C(=O)Nc1cccc(-c2nc(C(C)(C)C)no2)c1 .
OUTPUT: 2.96

---

Let's look at some compounds and their measured IC50.
# Tested on: HeLa
# assay-procedure: Proliferation assay (crystal violet), HeLa
# Type: cell-based
# applied-conditions: Homo sapiens, HeLa, 96 h, HeLa cells; 4 days incubation; crystal violet staining; read-out: IC50 inhibition of proliferation, HeLa
Output spec: scalar in nM, unitless text.

Known results for compounds:
>>> number("Cc1nsc(Nc2cnc(C(F)(F)F)cn2)c1C(=O)Nc1ccc(O[C@H]2CCN(CC(F)F)C2)nc1 [Example 382]")
180
>>> number("Cc1nsc(Nc2cnc(C(F)(F)F)cn2)c1C(=O)Nc1ccc(OC2CCN(CCC(F)(F)F)C2)nc1 (stereo not drawn) [Example 298]")
330
>>> number("Cc1nsc(Nc2cnc3ccccc3n2)c1C(=O)Nc1ccc(S(C)(=O)=O)cc1 [Example 115]")
4400

Now consider the entry below.
INPUT: Give the measured IC50 of Cc1nsc(Nc2cnc3ccccc3n2)c1C(=O)Nc1ccc(C(=O)NC2CN(C(=O)OC(C)(C)C)CC(F)(F)C2)cc1 (stereo not drawn) [Example 158] .
OUTPUT: 3200
